Method: pharmacokinetics of 16 ginsenosides in rat plasma after oral administration of RGS
Assay type: in vivo
Condition notes: SD, rat, plasma, po, 100 mg/kg, normal rats, oral RGS single dose 100 mg/kg, plasma, mean ± S.D., n = 5; read-out: T1/2 (converted)
Observable: half-life (h)
Dear colleague, please return just the value in h, with no unit written.

CC(C)=CCCC(C)(OC1OC(COC2OC(CO)C(O)C2O)C(O)C(O)C1O)C1CCC2(C)C1C(O)CC1C3(C)CCC(OC4OC(CO)C(O)C(O)C4OC4OC(CO)C(O)C(O)C4O)C(C)(C)C3CCC12C (stereo not drawn)    8.9
C=C(CCC=C(C)C)C1CCC2(C)C1C(O)CC1C3(C)CCC(OC4OC(CO)C(O)C(O)C4OC4OC(CO)C(O)C(O)C4O)C(C)(C)C3CCC12C (stereo not drawn)    18.1

Please look up its half-life: CC(C)=CCCC(C)(OC1OC(CO)C(O)C(O)C1O)C1CCC2(C)C1C(O)CC1C3(C)CCC(OC4OC(CO)C(O)C(O)C4OC4OC(CO)C(O)C(O)C4O)C(C)(C)C3CCC12C (stereo not drawn)
5.5

src = paper PMC6600263
